The compounds listed here are annotated with their remaining activity at 0.2 µM.
Biological target: TXK (Homo sapiens, UniProt P42681)
Construct: purchased Reaction Biology Corporation
Sequence (P42681 whole entry): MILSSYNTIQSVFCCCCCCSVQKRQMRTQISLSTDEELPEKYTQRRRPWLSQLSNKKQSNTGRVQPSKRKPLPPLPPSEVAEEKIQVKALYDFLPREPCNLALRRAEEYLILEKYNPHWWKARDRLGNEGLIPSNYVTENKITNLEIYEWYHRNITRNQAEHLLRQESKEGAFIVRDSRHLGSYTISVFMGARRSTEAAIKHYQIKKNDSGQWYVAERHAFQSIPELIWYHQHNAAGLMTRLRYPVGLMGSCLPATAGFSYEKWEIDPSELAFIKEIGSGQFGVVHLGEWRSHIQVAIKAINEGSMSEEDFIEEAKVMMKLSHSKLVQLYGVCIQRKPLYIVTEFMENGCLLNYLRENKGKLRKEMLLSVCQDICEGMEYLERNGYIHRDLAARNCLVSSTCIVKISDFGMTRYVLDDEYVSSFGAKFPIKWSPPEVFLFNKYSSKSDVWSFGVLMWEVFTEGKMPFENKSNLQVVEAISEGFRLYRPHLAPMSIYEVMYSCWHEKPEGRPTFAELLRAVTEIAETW
Assay: Radiometric kinase assay (Reaction Biology HotSpot)
Type: biochemical
Settings: 200 nM compound, duplicate mean, [ATP] = 10 μM; read-out: Residual Activity @ 200 nM, TXK
Numbers only here, please. The scale is %.

INSERT INTO assay_data (compound, value_measured) VALUES
  ('C=CC(=O)Nc1cccc(-c2c[nH]c3ncccc23)c1', 1.8),
  ('C=CC(=O)Nc1cccc(-c2c[nH]c3ncc(C(N)=O)cc23)c1 [Compound 10a]', 3.2),
  ('C=CC(=O)Nc1cccc(-c2c[nH]c3ncc(NC(=O)c4cccs4)cc23)c1 [Compound 12c]', 0.3);

Identify measured remaining activity at 0.2 µM corresponding to CCC(=O)Nc1cccc(-c2c[nH]c3ncc(NC(=O)C4CCCC4)cc23)c1 [Compound 12b] 89
